Assayed System: Histone acetyltransferase p300 (Homo sapiens, UniProt Q09472)
Sequence (Q09472 whole entry): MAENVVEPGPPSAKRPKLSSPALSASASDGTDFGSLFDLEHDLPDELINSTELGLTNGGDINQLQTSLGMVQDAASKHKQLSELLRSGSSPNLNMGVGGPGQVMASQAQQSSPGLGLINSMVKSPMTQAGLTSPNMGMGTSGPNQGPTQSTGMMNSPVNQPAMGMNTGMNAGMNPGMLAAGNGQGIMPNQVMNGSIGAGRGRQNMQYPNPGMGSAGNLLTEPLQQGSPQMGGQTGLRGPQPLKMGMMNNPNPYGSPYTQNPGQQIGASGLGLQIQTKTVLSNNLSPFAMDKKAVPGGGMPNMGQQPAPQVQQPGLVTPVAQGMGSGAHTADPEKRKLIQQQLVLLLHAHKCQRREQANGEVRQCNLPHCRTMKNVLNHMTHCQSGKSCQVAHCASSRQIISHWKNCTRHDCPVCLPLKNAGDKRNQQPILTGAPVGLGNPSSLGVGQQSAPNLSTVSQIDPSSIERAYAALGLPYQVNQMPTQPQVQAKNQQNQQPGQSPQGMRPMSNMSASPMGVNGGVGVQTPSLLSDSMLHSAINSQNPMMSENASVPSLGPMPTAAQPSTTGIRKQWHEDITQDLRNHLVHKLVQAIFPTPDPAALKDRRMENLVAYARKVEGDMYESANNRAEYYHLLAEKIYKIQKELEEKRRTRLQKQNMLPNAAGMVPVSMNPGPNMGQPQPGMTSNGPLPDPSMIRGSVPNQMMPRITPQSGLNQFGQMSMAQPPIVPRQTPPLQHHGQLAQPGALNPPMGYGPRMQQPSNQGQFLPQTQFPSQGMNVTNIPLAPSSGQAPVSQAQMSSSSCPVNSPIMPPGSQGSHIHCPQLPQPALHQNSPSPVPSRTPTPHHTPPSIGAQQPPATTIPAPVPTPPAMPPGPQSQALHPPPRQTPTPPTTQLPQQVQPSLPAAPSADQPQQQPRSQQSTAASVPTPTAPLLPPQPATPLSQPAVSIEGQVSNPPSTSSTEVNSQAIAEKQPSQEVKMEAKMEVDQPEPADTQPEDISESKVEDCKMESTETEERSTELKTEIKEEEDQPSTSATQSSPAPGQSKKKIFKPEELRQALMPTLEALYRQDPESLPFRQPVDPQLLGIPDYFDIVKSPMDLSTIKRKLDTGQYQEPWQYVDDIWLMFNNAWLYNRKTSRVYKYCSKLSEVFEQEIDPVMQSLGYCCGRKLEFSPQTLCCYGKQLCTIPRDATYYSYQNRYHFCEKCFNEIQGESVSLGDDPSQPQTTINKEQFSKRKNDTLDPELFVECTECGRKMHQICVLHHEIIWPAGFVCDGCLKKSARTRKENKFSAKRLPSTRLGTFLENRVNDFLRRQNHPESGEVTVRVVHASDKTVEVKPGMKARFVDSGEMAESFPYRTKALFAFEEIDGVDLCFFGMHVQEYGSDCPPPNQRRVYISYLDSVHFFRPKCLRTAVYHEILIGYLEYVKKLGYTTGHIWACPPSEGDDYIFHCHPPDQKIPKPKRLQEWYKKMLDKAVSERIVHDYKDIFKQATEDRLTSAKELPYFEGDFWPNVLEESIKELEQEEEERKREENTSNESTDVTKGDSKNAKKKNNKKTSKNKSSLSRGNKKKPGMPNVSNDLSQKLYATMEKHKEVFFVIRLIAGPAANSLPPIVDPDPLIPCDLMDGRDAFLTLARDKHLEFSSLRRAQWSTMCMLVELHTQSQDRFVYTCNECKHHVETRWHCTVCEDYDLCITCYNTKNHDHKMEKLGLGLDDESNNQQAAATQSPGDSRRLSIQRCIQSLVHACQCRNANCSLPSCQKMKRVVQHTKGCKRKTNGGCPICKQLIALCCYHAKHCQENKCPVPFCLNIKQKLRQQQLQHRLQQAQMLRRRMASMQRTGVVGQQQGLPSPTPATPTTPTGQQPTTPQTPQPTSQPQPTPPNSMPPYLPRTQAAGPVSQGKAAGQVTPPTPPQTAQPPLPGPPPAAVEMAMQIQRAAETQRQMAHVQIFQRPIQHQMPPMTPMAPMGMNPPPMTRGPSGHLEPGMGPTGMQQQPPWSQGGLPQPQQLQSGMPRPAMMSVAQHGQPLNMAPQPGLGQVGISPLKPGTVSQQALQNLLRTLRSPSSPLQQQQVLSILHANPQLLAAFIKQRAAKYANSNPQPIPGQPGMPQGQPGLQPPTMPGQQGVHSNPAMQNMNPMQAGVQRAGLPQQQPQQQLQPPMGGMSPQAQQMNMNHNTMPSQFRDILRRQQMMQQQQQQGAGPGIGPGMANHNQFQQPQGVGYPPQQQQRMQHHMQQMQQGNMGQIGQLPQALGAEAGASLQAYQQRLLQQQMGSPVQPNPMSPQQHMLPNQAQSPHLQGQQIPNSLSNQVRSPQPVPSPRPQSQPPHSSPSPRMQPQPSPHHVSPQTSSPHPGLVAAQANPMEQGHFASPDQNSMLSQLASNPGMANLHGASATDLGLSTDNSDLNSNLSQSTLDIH
Experimental Protocol: Noncompetitive inhibition of P300 (unknown origin) using acetyl CoA as substrate after 15 mins by double reciprocal plot analysis
Reported Metric: pKi
Scale note: pKi = -log10(concentration in M).

# query: pKi of entry Cc1cc(O)cc(C)c1C=C1C(=O)N(Cc2ccccc2)C(=O)N(Cc2ccccc2)C1=O
5.70

====

Assayed System: UniProt Q09472
Experimental Protocol: Inhibition of P300 (unknown origin) using histone H3/[acetyl-3H]-acetyl coenzyme A as substrate at 100 uM
Reported Metric: inhibition (%)
The reply should be a number in %, with the unit left off.

Would you please look over these solved cases?
| Sample Smiles | inhibition (%) |
| --- | --- |
| C=CCN1C(=O)C(=Cc2ccc(O)cc2)C(=O)N(CC=C)C1=O | 64.7 |
| CC(C)CN1C(=O)C(C(=O)c2ccc(O)cc2)C(=O)N(CC(C)C)C1=O | 39.7 |
| COc1cc(C=C2C(=O)N(Cc3ccccc3)C(=O)N(Cc3ccccc3)C2=O)ccc1O | 97.1 |
| O=C1C(Cc2ccccc2)C(=O)N(Cc2ccccc2)C(=O)N1Cc1ccccc1 | 83.9 |

# query: inhibition of entry O=C1C(=Cc2ccc(O)c(O)c2)C(=O)N(Cc2ccccc2)C(=O)N1Cc1ccccc1
96.2

====

Experimental Protocol: Apparent permeability of the compound at RT after 24 hrs by PAMPA
Format: physicochemical
List of Papp at 24 h values.
The reply should be a number in ×10⁻⁶ cm/s, with the unit left off.

| Compound | Papp at 24 h / ×10⁻⁶ cm/s |
| --- | --- |
| Cc1cc(O)cc(C)c1C=C1C(=O)N(Cc2ccccc2)C(=O)N(Cc2ccccc2)C1=O | 1.9 |

Now for the compound whose Papp at 24 h we want.
# query: Papp at 24 h of entry CC(C)NCC(O)COc1cccc2ccccc12 (configuration not stated)
4.1

====

Assayed System: Histone acetyltransferase KAT2B (Homo sapiens)
Sequence (Q92831 whole entry, looked up): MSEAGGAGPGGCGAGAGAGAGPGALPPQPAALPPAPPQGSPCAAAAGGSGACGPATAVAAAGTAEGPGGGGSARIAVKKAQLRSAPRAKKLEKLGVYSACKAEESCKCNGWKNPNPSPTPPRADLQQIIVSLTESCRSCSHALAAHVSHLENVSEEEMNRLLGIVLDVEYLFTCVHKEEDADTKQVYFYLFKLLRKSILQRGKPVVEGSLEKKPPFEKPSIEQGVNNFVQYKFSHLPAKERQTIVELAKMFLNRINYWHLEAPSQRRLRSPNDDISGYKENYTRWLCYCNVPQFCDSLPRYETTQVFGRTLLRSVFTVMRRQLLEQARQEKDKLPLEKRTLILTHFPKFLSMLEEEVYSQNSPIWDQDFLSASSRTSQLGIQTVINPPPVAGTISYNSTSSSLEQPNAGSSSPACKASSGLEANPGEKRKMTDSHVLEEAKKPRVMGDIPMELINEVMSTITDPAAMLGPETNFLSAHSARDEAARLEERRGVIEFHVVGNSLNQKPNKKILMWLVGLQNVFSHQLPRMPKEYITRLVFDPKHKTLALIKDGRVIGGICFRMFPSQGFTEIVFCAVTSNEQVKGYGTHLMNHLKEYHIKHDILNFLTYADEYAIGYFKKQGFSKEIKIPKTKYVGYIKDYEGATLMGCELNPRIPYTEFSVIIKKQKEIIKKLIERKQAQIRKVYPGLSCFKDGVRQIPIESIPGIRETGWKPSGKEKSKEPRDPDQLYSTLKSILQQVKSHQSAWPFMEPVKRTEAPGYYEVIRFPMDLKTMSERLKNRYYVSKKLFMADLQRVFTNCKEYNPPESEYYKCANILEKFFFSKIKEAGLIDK
Experimental Protocol: Inhibition of PCAF (unknown origin) using histone H3/[acetyl-3H]-acetyl coenzyme A as substrate at 100 uM
Reported Metric: inhibition (%)
The reply should be a number in %, with the unit left off.

Would you please look over these solved cases?
| Sample Smiles | Assayed System | inhibition / % |
| --- | --- | --- |
| C=CCN1C(=O)C(=Cc2ccc(OC)c(OC)c2)C(=O)N(CC=C)C1=O | Histone acetyltransferase KAT2B (Homo sapiens) | 6.6 |
| CC(C)CN1C(=O)C(C(=O)c2ccc(O)c(O)c2)C(=O)N(CC(C)C)C1=O | Histone acetyltransferase KAT2B (Homo sapiens) | 3.4 |
| C=CCN1C(=O)C(=Cc2ccc(O)cc2)C(=O)N(CC=C)C1=O | Histone acetyltransferase KAT2B (Homo sapiens) | 3.1 |

# query: inhibition of entry C=CCN1C(=O)C(=Cc2ccc(OC)cc2)C(=O)N(CC=C)C1=O
11.7

# query: inhibition of entry CC(C)CN1C(=O)C(Cc2ccc(O)cc2)C(=O)N(CC(C)C)C1=O
5

# query: inhibition of entry CC(C)CN1C(=O)C(C(=O)c2ccc(O)cc2)C(=O)N(CC(C)C)C1=O
19.3

# query: inhibition of entry C=CCN1C(=O)C(C(=O)c2ccc(O)cc2)C(=O)N(CC=C)C1=O
-2.7

# query: inhibition of entry COc1ccc(C=C2C(=O)N(CC(C)C)C(=O)N(CC(C)C)C2=O)cc1OC
9.2

# query: inhibition of entry COc1ccc(C=C2C(=O)N(Cc3ccccc3)C(=O)N(Cc3ccccc3)C2=O)cc1
-8.2

# query: inhibition of entry O=C1C(=Cc2ccc(O)c(O)c2)C(=O)N(Cc2ccccc2)C(=O)N1Cc1ccccc1
-2.3

# query: inhibition of entry C=CCN1C(=O)C(C(=O)c2ccc(O)c(O)c2)C(=O)N(CC=C)C1=O
3.6

# query: inhibition of entry C=CCN1C(=O)C(=Cc2ccc(O)c(O)c2)C(=O)N(CC=C)C1=O
3.3

# query: inhibition of entry C=CCN1C(=O)C(=Cc2ccc(O)c(OC)c2)C(=O)N(CC=C)C1=O
5.1

# query: inhibition of entry C=CCN1C(=O)C(Cc2ccc(O)cc2)C(=O)N(CC=C)C1=O
-7.5

# query: inhibition of entry COc1ccc(C=C2C(=O)N(CC(C)C)C(=O)N(CC(C)C)C2=O)cc1O
10.6
